Assign SPOT peptide array binding signal intensity to each entry below.
# Assay target: ScBem1-D1
# Test: SPOT peptide array binding signal intensity (averaged, normalized) (arbitrary units (background-subtracted, floor 0; scale differs between SH3 domains)); higher = stronger binding of the SH3 domain to the peptide

Request the reported SPOT peptide array binding signal intensity associated with QFDLKMPSKPIHNLK ≤ 0

Report SPOT peptide array binding signal intensity for MAMRPIPPLPTESEY please. ≤ 0

Quick one: SPOT peptide array binding signal intensity of EAEEAAPQLPSRSSA ? ≤ 0
